Reported percent inhibition of 125I-0405BP3 binding at 20 uM values for a set of binders
# Tested system: HLA-DR4 (DRA-DRB1*0405 complex) (human (endogenous in EBWa))
# Test method notes: radioligand binding
Give the value in % but do not write % after it.

Binder: GPKPLFRRMSSLVGPTQSFF [CD20p26-45 (…)]
Unit annotation: %
Reported result: 90

// sample SDPILYRPVAVALDTKGPE [PKM2p99-117 (…), unlabeled] , its percent inhibition of 125I-0405BP3 binding at 20 uM was 90

// sample GSTVFDNLPNPEIDGDYYGW [0405BP3 (…), unlabeled] , its percent inhibition of 125I-0405BP3 binding at 20 uM was 97

// sample SPGTGAYYVLLN [0405BP2 (…)] , its percent inhibition of 125I-0405BP3 binding at 20 uM was 93

// sample NELSGEAHKDALGKLY [irrelevant peptide (…), unlabeled] , its percent inhibition of 125I-0405BP3 binding at 20 uM was 1

// sample EGQLVSIHSPEEQDFLTKHA [CD23p195-214 (…)] , its percent inhibition of 125I-0405BP3 binding at 20 uM was 59

// sample VPIQRAVYQNVVVNN [0405BP1 (…), unlabeled] , its percent inhibition of 125I-0405BP3 binding at 20 uM was 103
